# assay name: label from the status in PepcDB records
value kind: protein production

Consider the following illustrative entries.
seq	protein production
KFTELEFHRIIGTGQFGLVRVVRNIKTNEVYALKVMHKAPIVESKQIEHVINERKILEEACTHPFCVRLCGAYQDKASLYLLQEWVPGGELFHHLDVEGAFDEPTAMFYAANVLLALEFLHAKGIVYRDLKPENLLLDTQGYIKMADFGFAKYIGGDKTYTICGTPDYQAPEVIMRRGTTKAADYWALGVLIFEMLVGDPPFKSLTGDPWDTFRRTLSGRFYVPNFISDQAADLIFKLLQVNPDKRLGSDKRLGAEEIKRHRWFSRIDWRALEQKKLPSPFRPRVRNPLDTSNFDNFDN	not failed
MIDTMQYGKNDSLRDEIKAYWSGRAATFDLSPGHEIFSEDERAAWHALILKHLGRGEGRKALDLASGTGVISHLMDDLGFQVTGMDWSETMLGLAREKAKSRGRNIRFFVGDAENTMEPDESADVIITRHLVWTLVDPQASFAEWFRVLKPGGKLLIVDGDFVNTGWRERLVKKLAVSLESIGLVKADQPHKPADPENTFNSILSRVYFSKGARAGDVATMLGATGFEPVSVDQELRAIHRAQAKNFSLLKGILRGLQHRYAVCAVKPDTSVKG	failed
MKITILSGGTGTPKLIQGFKEILPNEDISVIVNTGEDTYIGDIYLSPDIDTVLYTFSNLINDETWYGLKGDTFFCHEQLKNFGFDEVLRIGDKDRALKMHKTSLLKKGVPMSEIVDIERKSLSINSKIYPMSDEKIESKVLIEENNEKILLKFHDFWVSRRGNAKVLDIFYENSNYAKAADGVLKAIEESDFVIIGPSNPITSIGPILSISEIKDALKEKLVFAVSPIVGENPVSGPAGTLMHAKGYPVNAVGVYEYYKDIVDVLVLDNSDINKKKEMNCEVLYANTIMKTIDDKITLARNILDYYKSR	failed
MLNPVSQLSQAIRENTEHLAEKMKILFQNTGRAWEDLEARINAENEVPILKTSNKEISSILKELRRVQKQLEVINAIVDPSGSLDLLTGNRSLASSAQPGLGKGRVAAQSPPSPASAEALLPALPLRNFPQRASCGPPSLPDPTFLPDAERFLI	failed

Retrieve protein production measured for `MESFSSKSLALQAEKKLLSKMAGRSVAHLFIDETSSEVLDELYRVSKEYTHSRPQAQRVIKDLIKVAIKVAVLHRNGSFGPSELALATRFRQKLRQGAMTALSFGEVDFTFEAAVLAGLLTECRDVLLELVEHHLTPKSHGRIRHVFDHFSDPGLLTALYGPDFTQHLGKICDGLRKLLDEGKL` and print it.
failed

Look up and state reported protein production for `MSVAHENARRIISDILGKQNIERVWFVGCGGSLTGFWPGKYFLDCEASKLAVGYITSNEFVHATPKALGKNSVVILASQQGNTAETVAAARVAREKGAATIGLVYQPDTPLCEYSDYIIEYQWARYPETVDPAQQKAAYSLWLALEILAQTEGYAQYDELVSAFGRFSDVVHGAQRQVQEDAQRFAAEWKDEKVVYMMGSGPSFGAAHQESICILLEMQWINSASIHSGEYFHGPFEITEPGTPFILLQSSGRTRPLDDRAIRFIERYQGKLQLIDADKLGIQDLSTDVGEYFCGLLHNCVLDVYNLALATARNHPLTTRRYMWKVEY`
not failed

###

# assay name: label from the status in PepcDB records
value kind: protein production

Below, each entry is followed by its recorded protein production result.
seq	protein production
MKKFKLSSFLPLSYILLLVLVSPLYDVLNKSTVHAVDVTTVVDDWIPFVKAFIIPYLLWFPYLYGALIYYCFADRKQYYVTLSSVIFGKLACFSIYYFWQTTVPRPTVVGTDVFSELVRYIYSIDQPVNCFPSIHVLTTFVIMLAAFKRREQHAFEYYILTFFGTLIILSTLFTKQHAFLDAVSGMTLASILYFGVQLLLAKEPIKVPVKQNHKM	failed
MDTAIILGLLVAVFYGVGTFFAKIVCEKNPLFQWIVVNIVGIILCLIILLKYKNIIITDQKILTYAIISAVLVVIGSLLLYYALYKGKASIVVPLSSIGPAITVALSILFLKETLTLPQMIGIVLIIIGIILLSISN	failed
MPKKGSRPDRPSRRCARMTSTVPALGTRSAEGSALQAVLLDMDGTLVDTEGFWWDVEAEVFAALGHPLDESWRHVVVGGPMARSAGFLIEATGADITLAELTVLLNDGFEARIGRTLPLMPGAARLLAELAAHEIPTALVSASHRRIIDRVLTSLGSQHFALTVAGDEVARTKPFPDPYLLAASGLGAEPARCAVIEDTATGVAAAEAAGCRVVAVPSVAPIAPAARRTVVTSLEEVDLPFLRGLMTEMR	failed
MEYDEKLARFRQAHLNPFNKQSGPRQHEQGPGEEVPDVTPEEALPELPPGEPEFRCPERVMDLGLSEDHFSRPVGLFLASDVQQLRQAIEECKQVILELPEQSEKQKDAVVRLIHLRLKLQELKDPNEDEPNIRVLLEHRFYKEKSKSVKQTCDKCNTIIWGLIQTWYTCTGGPRPRRGVRNERDQSSCLRWAHIQM	failed
MSNMQLDTLRRIVQEINSSVSLHDSLDIMVNQVADAMKVDVCSIYLLDERNQRYLLMASKGLNPESVGHVSLQLSEGLVGLVGQREEIVNLENASKHERFAYLPETGEEIYNSFLGVPVMYRRKVMGVLVVQNKQPQDFSEAAESFLVTLCAQLSGVIAHAHAVGNID	not failed

Consider the sequence `MSDLQKLQRFSTCDISDGLLNVYNIPTGGYFPNLTAISPPQNSSIVGTAYTVLFAPIDDPRPAVNYIDSVPPNSILVLALEPHLQSQFHPFIKITQAMYGGLMSTRAQYLKSNGTVVFGRIRDVDEHRTLNHPVFAYGVGSCAPKAVVKAVGTNVQLKILTSDGVTQTICPGDYIAGDNNGIVRIPVQETDISKLVTYIEKSIEVDLLVSEDIKNGIPAKQAQNDRRSVLKKYI` and give its recorded protein production.
not failed

Complete the entry with protein production for `DGQPVAMGDVGELVIGGVGLARYLDPVKDREKFSAELGWERAYRSGDHVRLCEDGLYFVGRIDDQVKIGGRRIELGEVEAHVAALPNVAQYAVVVRETAAGEKVLVAYVSPQVPDVDIDTSALDELPRAMVPRLVVLPEIPTTTSGKADKKALPWPLESAQVTGSDFTPTQQWLAQLWVDVLGVPVGDVD`
failed

###

# assay name: label from the status in PepcDB records
value kind: protein production

Example entries begin here.
seq	value kind	value
MQSLGSLAKNIKPNQNIVEEEHNLKCERCGNTYDYYKFSNGKEFRHGCDCSMIAAGKEAEQQRKQKYLNRIFNQSNVNASLRDATVNSYQPQNDHQVHAKSTAIEYVKGFSVDKPKSLILQGSYGTGKSHLAYAVAKAIKQQGYSVAFMHIPMLMERIKATYNRNATETTDELVQLLSSIDLLVLDDVGVENTEHTLNKLFSIVDNRVGKNNIFTTNFSDKELNQNMNWQRINSRMKQNARTVRVLGDDFRGRDAW	protein production	failed
MSDKLFSIVTISFNQAQFLREAVESVLAQKGGDIEYIVVDPGSTDGSREILAEYRSAIDHLILEADHGPGDGLNKGFARANGRYGYFLNSDDFLLPGAIDIMRTLWQRHKNTDVLLCGAWMVDENRRPQRELRPSPVTLEKLLDGEAKIVQQGMSFRMDLFRKVGGFNVGNRTCWDYELLCDFLAAGAAVTQSEARLAAFRIHSASISGGIGGELATKRYLADLDSVYERLTGQKKKPEQRRRAVRLSKRLGSPSHVLLRMRELLAPWTLELRWQADHERKSRRLEHHHHHH	protein production	failed
MSLEIIKTGLAAFGMSGQVFHAPFISTNPHFELYKIVERSKELSKERYPQASIVRSFKELTEDPEIDLIVVNTPDNTHYEYAGMALEAGKNVVVEKPFTSTTKQGEELIALAKKKGLMLSVYQNRRWDADFLTVRDILAKSLLGRLVEYESTFARYRNFIKPNTWKETGESGGGLTYNLGSHLIDQAIQLFGMPEAVFADLGILREGGKVDDYFIIHLLHPSLAPNVKITLKASYLMREAEPRFALHGTLGSYVKYGVDKQEAALLAGEIPERPNWGEESEQEWGLLHTEINGKEICRKYPGIAGNYGGFYQNIYEHLCLGQPLETHAQDILNVIRIIEAAYQSHRENKIVNLKEGHHHHHH	protein production	not failed
MSLVTYQTIKVRFQASVCYITFHRPEANNTINDTLIEECLQVLNQCETSTVTVVVLEGLPEVFCFGADFQEIYQEMKRGRKQASSQEPLYDLWMKLQTGPYVTISHVRGKVNAGGLGFVSATDIAIADQTASFSLSELLFGLYPACVLPFLIRRIGRQKAHYMTLMTKPISVQEASEWGLIDAFDAESDVLLRKHLLRLRRLNKKGIAHYKQFMSSLDHQVSRAKATALTANQDMFSDPQNQMGIIRYVETGQFPWEDQEGHHHHHH	protein production	not failed
MFAERRMNVQKKLKIMAARDRNRFRPLFEGDEEVDMLYLNCNVASRPSLSCDGLVCIPIPGWINVLNPSTGEFLRFSSGRDPRLINDFECVDSKFDVFPGFWTMGFGRDNVNGSYKIVRMLFDRHFENRYCQILDVNIGEWRKQRQPPYFVGYREKSACVNGSIYWSQALIRCKLLAFDLYSEEFRDVPTPPRSEICERSCQIVNLEDRLVLAVTYTTSLHWNVKIWSMDAHDGTRSITYSIRLFSKDMNSSIMNHFQLWFWTRPLAVSKRGNLFFHDNEKRL	protein production	failed

Using known records, supply protein production for `MRDYVEIGMGREARRTYHLDSVAIVPSRRTRSSKDVDTTWHIDAYTFDIPFMSHPTDALATPDFVIEMDKQGGLGVINAEGLWGRHADLDAAIQEVITAYGDDELDLGSCNRATKKLQELHAAALDTELLVERIAQVRSSGAT`
failed
